# System: BHK-21
# assaySummary: Cytotoxicity against hamster BHK21 cells after 96 hrs by MTT assay
# Format: functional, cell-based
# statedConditions: Mesocricetus auratus, BHK-21, 96 h
parameter: pIC50
Expect pIC50 as a plain number equal to -log10 of the molar concentration.

Qu. Using the record for COc1ccc(C(C#N)(CCCN(C)CCc2ccc(O)c(I)c2)C(C)C)cc1OC (stereo not given) , report its pIC50.
Ans. 4.48

---
Qu. Using the record for COc1ccc(CCN(C)CCCC(C#N)(c2ccc(OC)c(OC)c2)C(C)C)cc1 (stereo not given) , report its pIC50.
Ans. 4.47

Qu. Using the record for COc1ccc(C(C#N)(CCCNCCc2cc(I)c(O)c(I)c2)C(C)C)cc1OC (stereo not given) , report its pIC50.
Ans. 4.86

Qu. Using the record for COc1ccc(C(C#N)(CCCN(C)CCCc2ccc(O)c(I)c2)C(C)C)cc1OC (stereo not given) , report its pIC50.
Ans. 5.03

###

# Test system: BHK-21
# assaySummary: Cytotoxicity against hamster BHK21 cells after 96 hrs by MTT assay
# Assay type: functional, cell-based
# statedConditions: Mesocricetus auratus, BHK-21, 96 h
So basically, if IC50 comes in under 10 µM it's y, and if it's 10 µM or more it's n.

// below: answered molecules
Qu. IC50 strictly < 10 µM for this molecule? COc1ccc(C(C#N)(CCCNCCc2ccc(O)c(I)c2)C(C)C)cc1OC (stereo unspecified)
Ans. n

Qu. IC50 strictly < 10 µM for this molecule? COc1ccc(C(C#N)(CCCN(C)CCCc2ccc(O)cc2)C(C)C)cc1OC (stereo unspecified)
Ans. n

Qu. IC50 strictly < 10 µM for this molecule? COc1ccc(CCN(C)CCCC(C#N)(c2ccc(OC)c(OC)c2)C(C)C)cc1I (stereo unspecified)
Ans. n

---
Qu. IC50 strictly < 10 µM for this molecule? COc1ccc(C(C#N)(CCCN(C)Cc2ccc(O)cc2)C(C)C)cc1OC (stereo unspecified)
Ans. n

Qu. IC50 strictly < 10 µM for this molecule? COc1ccc(C(C#N)(CCCN(C)CCc2cc(I)c(OC)c(I)c2)C(C)C)cc1OC (stereo unspecified)
Ans. y

Qu. IC50 strictly < 10 µM for this molecule? COc1ccc(C(C#N)(CCCN(C)Cc2cc(I)c(O)c(I)c2)C(C)C)cc1OC (stereo unspecified)
Ans. n

###

Reported IC50 by item:
# System: BHK-21
# assaySummary: Cytotoxicity against hamster BHK21 cells after 96 hrs by MTT assay
# Assay type: functional, cell-based
# statedConditions: Mesocricetus auratus, BHK-21, 96 h
Answer with a number only, understood to be in µM.

Examples with answers:
Qu. Using the record for COc1ccc(C(C#N)(CCCN(C)Cc2ccc(O)c(I)c2)C(C)C)cc1OC (stereo unspecified) , report its IC50.
Ans. 14.1

Qu. Using the record for COc1ccc(C(C#N)(CCCN(C)CCCc2cc(I)c(O)c(I)c2)C(C)C)cc1OC (stereo unspecified) , report its IC50.
Ans. 33.1

Qu. Using the record for COc1ccc(C(C#N)(CCCN(C)CCc2ccc(O)cc2)C(C)C)cc1OC (stereo unspecified) , report its IC50.
Ans. 55.9

Could you now look at the following molecule, please?
Qu. Using the record for COc1ccc(C(C#N)(CCCN(C)CCc2cc(I)c(O)c(I)c2)C(C)C)cc1OC (stereo unspecified) , report its IC50.
Ans. 54.7

Where do these numbers come from? They come from ChEMBL document CHEMBL1221323.
